# subject-of-test: T1, human LILRB2 expressed on cells (human, UniProt Q8N423 22-597)
# T1 construct: In 293T cells it was expressed from pCMV3-LILRB2-GFP; also called CHO-LILRB2; Jurkat-LILRB2
# assay-info: flow cytometry, CHO-LILRB2 cells
Attribute: gMFI (max)
// response body must contain only the number

What does the record list as gMFI (max) for #11 (antibody, human IgG1, V domains shown, also called D2M002-011) VH: EVQLQQSGAELMKPGASVKISCKATGYTFSNYWIEWVKQRPGHGLEWIGEILPGSGSTDYNEKFEGKATFTADTSSNTAYMQLSSLTSEDSAVYYCARSGAGGYDSGAFAYWGQGTLVTVSA VL: DIQMTQSPASLAVSLGQRATISCRASESVDTYGNSFMHWYQQKPGQPPKLLIYRTSNLESGIPARFSGSGSRTDFTLTINPVEADDVATYYCQQSNEDPWTFGGGTKLEIK ?
21600

Recorded gMFI (max) of #22 (antibody, human IgG1, V domains shown, also called D2M002-022) VH: QVQLQQSGAELMKPGASVKISCKATGYTLSSYWIEWVKQRPGHGLEWIGEILPGSGSTNYNEKFKGKATFTADTSSNTAYMQLSSLTSEDSAVYYCARSGAGGYDSGAFAYWGQGTLVTVSA VL: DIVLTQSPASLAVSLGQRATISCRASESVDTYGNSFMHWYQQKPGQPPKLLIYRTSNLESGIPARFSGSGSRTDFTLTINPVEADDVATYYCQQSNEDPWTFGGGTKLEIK , please.
26300

Returns the measured gMFI (max) for the input binder. Input: D2M002-044 (antibody, human IgG1, V domains shown, Hit; also called clone #44) VH: EVQLQQSGAELVRPGALVKLSCKGSGFNIKDYYMHWVRQRPEQGLEWIGWIDPENGNTVYAPKFQGKASITSDTSSNIAYLQFSSLTSEDTAVYYCARSRDHGAMDYWGQGTSVTVSS VL: DVQITQSPAIMSASPGEKVTLTCSASSSVSSSNLYWYQQKPGSSPKLWIYSTSNLASGVPARFSGSGFGTSYALTISSMEAEDAASYFCHQWSSYPYTFGGGTKLEIK
22900

Would you kindly share the measured gMFI (max) for D2M002-026 (antibody, V domains shown, Hit; also called clone #26) VH: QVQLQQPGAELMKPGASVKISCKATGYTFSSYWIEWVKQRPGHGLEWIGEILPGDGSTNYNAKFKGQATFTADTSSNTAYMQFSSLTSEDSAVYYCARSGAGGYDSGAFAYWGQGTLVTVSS VL: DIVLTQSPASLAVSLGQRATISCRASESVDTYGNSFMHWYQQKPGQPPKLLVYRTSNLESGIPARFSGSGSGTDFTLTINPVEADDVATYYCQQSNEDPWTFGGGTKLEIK ?
35500

// returns reported gMFI (max) for input #27 (antibody, human IgG1, V domains shown, also called D2M002-027) VH: EVQLQQSGAELMKPGASVKISCKITGYTFSSYWIEWVKQRPGHDLEWIGEILPGSGSTNYNEKFKGKASFTADTSSNTAYMQLNSLTSEDSAVYYCARSGAGGYDSGAFAYWGQGTLVTVSA VL: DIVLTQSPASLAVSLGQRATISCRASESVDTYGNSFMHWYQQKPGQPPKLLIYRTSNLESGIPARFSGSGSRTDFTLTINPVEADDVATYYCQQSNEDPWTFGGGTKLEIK
23900

Values were extracted from patent US20250171534A1.
